Target: UniProt:O15151
Sequence (O15151 1-125): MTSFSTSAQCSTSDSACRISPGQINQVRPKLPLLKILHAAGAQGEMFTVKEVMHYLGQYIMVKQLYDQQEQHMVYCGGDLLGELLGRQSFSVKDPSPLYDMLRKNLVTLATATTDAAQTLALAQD
Experiment: Competitive fluorescence polarization assay for MDMX
Assay type: binding
Conditions: competitive FP assay, read-out: IC50 (MDMX)
pIC50: −log10 of the molar value.
Exercise: for every item that follows, state its recorded pIC50.

INSERT INTO measurements (compound, measured_parameter, value) VALUES
  ('CCCC[C@H](NC(=O)[C@H](C)NC(=O)[C@H](C)NC(=O)[C@]1(C)CCCC=CCCCCCC[C@@](C)(NC(=O)[C@H](Cc2ccccc2)NC(=O)[C@@H](NC(=O)[C@H](CC(C)C)NC(=O)CN(C)C)[C@@H](C)O)C(=O)N[C@@H](C)C(=O)N[C@@H](Cc2ccc(O)cc2)C(=O)N[C@@H](Cc2c[nH]c3ccccc23)C(=O)N[C@@H](C)C(=O)N[C@@H](CCC(N)=O)C(=O)N[C@@H](CC(C)C)C(=O)N1)C(=O)N[C@@H](C)C(N)=O (single isomer, unassigned)', 'pIC50', '7.00 to 8.00');

From here, focus on the item given below.
Problem: For the record CC[C@H](C)[C@H](NC(C)=O)C(=O)N[C@H](C(=O)N[C@@H](Cc1ccccc1)C(=O)N[C@]1(C)CCCCCCC=CCCC[C@@](C)(C(=O)N[C@@H](C)C(=O)N[C@@H](Cc2c[nH]cn2)C(=O)N[C@@H](Cc2ccccc2)C(=O)N[C@@H](C)C(N)=O)NC(=O)[C@H](CC(C)C)NC(=O)[C@H](CCC(N)=O)NC(=O)[C@H](C)NC(=O)[C@H](Cc2c[nH]c3ccccc23)NC(=O)[C@H](Cc2ccc(O)cc2)NC(=O)[C@H](Cc2ccccc2)NC1=O)[C@@H](C)O (single isomer, unassigned) , what value of pIC50 is listed for UniProt:O15151?
Result: < 6.00
